Could you please report measured composite z-score for the items listed next?
TESTED ON: Carbonic anhydrase 2 (Homo sapiens)
ASSAY DETAILS: CAII small-molecule binders, profiling panel, biochemical, small-molecule microarray, Alexa647-labelled CAII (AID 1122)
COND: CAII-A647 binding fluorescence, higher = more signal
In your answer, state the number alone without any accompanying words.

## Task Look at this molecule and give its reported composite z-score. CCCN1C(=O)[C@@]2(CCS(=O)(=O)c3ccccc3)N=C(c3ccc(OCCCO)cc3)O[C@H]2c2ccccc21
## Result 0.294

## Task Query: composite z-score; subject: CCCCCCc1nc(C2CC2)c(C)c2c1[Si](C(C)C)(C(C)C)OC2
## Result -0.364

## Task Bench note: what composite z-score did N#Cc1ccc(NN2C(C(O)c3ccc(I)cc3)C=CC3C(=O)N(c4ccccc4)C(=O)C32)cc1 (stereo not drawn) show?
## Result 0.74

* * *

ASSAY DETAILS: small-molecule binders of probe aNOTCH3, primary screen, biochemical, small-molecule microarray, 635/667 nm fluorescence (AID 1120);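 note: probe is a biotin-tagged antibody raised against NOTCH3 rather than NOTCH3 protein; score merges spot fluorescence near 667 nm with spot signal to noise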
COND: higher = more signal
Assign class by composite z-score: not lower than -0.004 means rule met; lower than -0.004 means rule not met.

## Task Determine whether measured composite z-score meets or exceeds -0.004 for CCCC[C@@H]1C[C@H]1[C@@H](NC(=O)c1cccs1)c1ccc(Cl)cc1
## Result rule not met

## Task Does composite z-score meet or surpass -0.004 for Cc1ccc(S[C@]2(C(=O)NC3CC3)CC(=O)N(Cc3cc(C(F)(F)F)cc(C(F)(F)F)c3)[C@@H]2c2ccc(CO)cc2)cc1 ?
## Result rule not met

## Task Is composite z-score for CC(=O)NCCCC[C@@H]1NC(=O)[C@H]2C[C@@H](C(=O)NCCCCCCN(C)C)[C@@H](c3cccc(OCCO)c3)N2C1=O at or above -0.004?
## Result rule met

## Task Does C=C(CCCC)/C(=C/C[C@@H](OC(=O)c1ccncc1)c1cccc(OCCO)c1)c1cc(C(=O)OC)ccc1OC have a reported composite z-score of at least -0.004?
## Result rule met

## Task For this compound, is measured composite z-score -0.004 or higher? CN(C)c1ccc(C(O)C2C=CC3C(=O)NC(=O)C3N2Nc2ccc(Cl)cc2Cl)cc1 (stereo unspecified)
## Result rule met

## Task Is reported composite z-score greater than or equal to -0.004 here: CO[C@H]1O[C@H](CO)[C@@H](OC(=O)Nc2ccc(Oc3ccccc3)cc2)[C@H](OC(=O)Nc2ccccc2-c2ccccc2)[C@H]1OC(=O)Nc1ccccc1-c1ccccc1
## Result rule met

## Task // inclusive: composite z-score at least -0.004? input: CCOC(=O)C1=CC[C@@H](c2ccccc2)N(S(=O)(=O)c2ccc(C)cc2)[C@H]1C
## Result rule met

## Task Quick check, composite z-score >= -0.004? CCCC=C(CCC)[C@@H](NS(=O)(=O)c1ccc(-c2ccccc2)cc1)c1ccc(C(=O)OC)cc1
## Result rule not met

## Task Item CCOC(=O)C[C@H]1[C@H](OC(=O)c2ccccc2-c2ccccc2)[C@@H](NC(=O)c2ccc(-c3ccccc3)cc2)c2cc(OCCCO)ccc2N1C(=O)Cc1ccc(OC)cc1 with composite z-score of -0.004 or above?
## Result rule met

## Task Textbook exercise: given the entry O=C1C2C=CC(C(O)C#Cc3ccccc3)N(Nc3ccccc3)C2C(=O)N1c1ccccc1 (stereo unspecified) , state whether its composite z-score is greater than or equal to -0.004.
## Result rule not met

## Task Check this compound for composite z-score at or above -0.004: COc1cc2c(cc1OC)CN(C(=O)[C@H]1[C@@H]3C(=O)O[C@@H](c4ccccc4)[C@@H](c4ccccc4)N3[C@@H](c3ccccc3OCCO)[C@]13C(=O)Nc1ccc(C#CC4(O)CCCCCC4)cc13)CC2
## Result rule not met
